log10 CC50 by entry:
test: Cytotoxicity against human CEM-SS cells by MTT assay; type: cell-based
QUANTITY MEASURED: log10 CC50 (log10 of the value in µM)

- COc1c(C)cc(/C(=C/CCc2nnc(C)o2)c2ccc3oc(=O)n(C)c3c2)cc1C(=O)SC: 0.77
- COC(=O)c1cc(/C(=C/CCc2nnc(C)o2)c2cc(C)c3oc(=O)n(C)c3c2)cc(C)c1OC: 0.51
- COc1c(C)cc(/C(=C\CCCc2nnc(C)o2)c2ccc(C#N)cc2)cc1C(=O)SC: 0.95
- COC(=O)c1cc(C(=CCCc2nnc(C)o2)c2cc(C)c(OC)c(C(=O)OC)c2)cc(C)c1OC: 1.60
- COc1c(C)cc(/C(=C\CCc2nnc(C)o2)c2cc(C)c3on(C)c(=O)c3c2)cc1C(=O)SC: 1.26
- COC(=O)c1cc(/C(=C\CCc2nnc(C)o2)c2cc(C)c3onc(OC)c3c2)cc(C)c1OC: 0.45
- COc1c(C)cc(C(=CCCc2nnc(C)o2)c2cc(C)c(OC)c(C(=O)SC)c2)cc1C(=O)SC: 0.91
- COc1c(C)cc(/C(=C/CCCc2nnc(C)o2)c2cc(C)c3oc(=O)n(C)c3c2)cc1C(=O)SC: 0.74
- COC(=O)c1cc(/C(=C\CCc2nnn(C)n2)c2cccc(C#N)c2)cc(C)c1OC: 0.87
- COC(=O)c1cc(C(=CCCc2nnn(C)n2)c2cc(C)c(OC)c(C(=O)OC)c2)cc(C)c1OC: 0.98
- COc1c(C)cc(/C(=C\CCCc2nnc(C)o2)c2cc(C)c3on(C)c(=O)c3c2)cc1C(=O)SC: 0.78
- COc1c(C)cc(/C(=C\CCc2nnc(C)o2)c2ccc3oncc3c2)cc1C(=O)SC: 1.58
- COc1c(C)cc(/C(=C\CCCc2nnc(C)o2)c2cccc(C#N)c2)cc1C(=O)SC: 1.08
- COc1c(C)cc(/C(=C\CCc2nnc(C)o2)c2cc(C)c3onc(OC)c3c2)cc1C(=O)SC: 0.32
- COC(=O)c1cc(/C(=C\CCc2nnc(C)o2)c2cccc(C#N)c2)cc(C)c1OC: 0.65
- COc1c(C)cc(/C(=C\CCCc2nnc(C)o2)c2cc(C)c3onc(OC)c3c2)cc1C(=O)SC: 0.76
- COc1c(C)cc(/C(=C/CCCc2nnc(C)o2)c2cccc(C#N)c2)cc1C(=O)SC: 0.86
- COC(=O)c1cc(/C(=C\CCc2nnc(C)o2)c2cc(C)c3on(C)c(=O)c3c2)cc(C)c1OC: 0.89

====

EC50 by entry:
system: Human immunodeficiency virus 1; assay: Antiviral activity against HIV1 with RT Y181C mutation; format: functional, organism-based
QUANTITY MEASURED: EC50

- COc1c(C)cc(/C(=C\CCc2nnc(C)o2)c2cc(C)c3onc(OC)c3c2)cc1C(=O)SC: > 100 µM
- COC(=O)c1cc(/C(=C\CCc2nnc(C)o2)c2cc(C)c3onc(OC)c3c2)cc(C)c1OC: > 100 µM
- COC(=O)c1cc(/C(=C\CCc2nnc(C)o2)c2cccc(C#N)c2)cc(C)c1OC: > 100 µM
- COc1c(C)cc(/C(=C\CCc2nnc(C)o2)c2ccc(C#N)cc2)cc1C(=O)SC: > 100 µM
- COc1c(C)cc(/C(=C/CCCc2nnc(C)o2)c2cc(C)c3onc(OC)c3c2)cc1C(=O)SC: > 100 µM
- COc1c(C)cc(/C(=C\CCCc2nnc(C)o2)c2cc(C)c3onc(OC)c3c2)cc1C(=O)SC: > 100 µM

====

assay: Cytotoxicity against human MT4 cells by MTT assay; type: cell-based
QUANTITY MEASURED: CC50 (µM)

- COc1c(C)cc(/C(=C/CCc2nnc(C)o2)c2cc(C)c3on(C)c(=O)c3c2)cc1C(=O)SC: 37
- COC(=O)c1cc(C(=CCCc2nnc(C)o2)c2cc(C)c(OC)c(C(=O)SC)c2)cc(C)c1OC: 3.9
- COc1c(C)cc(C(=CCCc2nnc(C)o2)c2cc(C)c(OC)c(C(=O)SC)c2)cc1C(=O)SC: 5.9
- COC(=O)c1cc(C(=CCCc2nnn(C)n2)c2cc(C)c(OC)c(C(=O)SC)c2)cc(C)c1OC: 1.4
- COC(=O)c1cc(/C(=C\CCc2nnc(C)o2)c2cccc(C#N)c2)cc(C)c1OC: 8.1
- COc1c(C)cc(/C(=C/CCc2nnc(C)o2)c2cccc(C#N)c2)cc1C(=O)SC: 3.8
- COc1c(C)cc(/C(=C\CCc2nnc(C)o2)c2cc(C)c3on(C)c(=O)c3c2)cc1C(=O)SC: 19
- COc1c(C)cc(/C(=C/CCc2nnc(C)o2)c2cc(C)c3oc(=O)n(C)c3c2)cc1C(=O)SC: 14
- COC(=O)c1cc(/C(=C/CCc2nnc(C)o2)c2cc(C)c3oc(=O)n(C)c3c2)cc(C)c1OC: 13

====

test system: Human immunodeficiency virus 1; assay: Antiviral activity against HIV1 3B in human MT4 cells by MTT assay; conditions: Human immunodeficiency virus 1, 3B
pEC50: −log10 of the molar value.
Rule: pEC50 under 6 gives 0, otherwise 1.

• COc1c(C)cc(/C(=C\CCc2nnc(C)o2)c2ccc(C#N)cc2)cc1C(=O)SC = 0
• COC(=O)c1cc(/C(=C\CCc2nnc(C)o2)c2cc(C)c3on(C)c(=O)c3c2)cc(C)c1OC = 0
• COC(=O)c1cc(/C(=C/CCc2nnc(C)o2)c2cc(C)c3oc(=O)n(C)c3c2)cc(C)c1OC = 1
• COc1c(C)cc(/C(=C\CCCc2nnc(C)o2)c2cc(C)c3onc(OC)c3c2)cc1C(=O)SC = 1

====

experiment: Metabolic stability in rat plasma; format: ADME, cell-free
// assign 1.0 if half-life falls strictly below 1 h, else 0.0 (ties count as 0.0)

* COc1c(C)cc(/C(=C/CCCc2nnc(C)o2)c2ccc(C#N)cc2)cc1C(=O)SC | 1.0
* COC(=O)c1cc(/C(=C\CCc2nnc(C)o2)c2cccc(C#N)c2)cc(C)c1OC | 0.0
* COc1c(C)cc(/C(=C/CCc2nnc(C)o2)c2ccc3oc(=O)n(C)c3c2)cc1C(=O)SC | 0.0
* COC(=O)c1cc(/C(=C\CCc2nnn(C)n2)c2cccc(C#N)c2)cc(C)c1OC | 1.0
* COc1c(C)cc(/C(=C\CCc2nnc(C)o2)c2cc(C)c3onc(OC)c3c2)cc1C(=O)SC | 0.0
* COC(=O)c1cc(C(=CCCc2nnc(C)o2)c2cc(C)c(OC)c(C(=O)SC)c2)cc(C)c1OC | 0.0
* COC(=O)c1cc(/C(=C\CCc2nnc(C)o2)c2ccc(C#N)cc2)cc(C)c1OC | 1.0
* COC(=O)CCCC=C(c1cc(Br)c(OC)c(C(=O)OC)c1)c1cc(Br)c(OC)c(C(=O)OC)c1 | 1.0
* COc1c(C)cc(/C(=C\CCCc2nnc(C)o2)c2cc(C)c3onc(OC)c3c2)cc1C(=O)SC | 0.0

====

experiment: Cytotoxicity against human MT4 cells by MTT assay; format: cell-based
QUANTITY MEASURED: CC50 (µM)

- COC(=O)c1cc(/C(=C\CCc2nnc(C)o2)c2cc(C)c3onc(OC)c3c2)cc(C)c1OC: 6.4
- COc1c(C)cc(/C(=C/CCCc2nnc(C)o2)c2cc(C)c3on(C)c(=O)c3c2)cc1C(=O)SC: 25
- COc1c(C)cc(/C(=C\CCc2nnc(C)o2)c2cccc(C#N)c2)cc1C(=O)SC: 8.4
- COc1c(C)cc(C(=CCCCc2nnc(C)o2)c2cc(C)c(OC)c(C(=O)SC)c2)cc1C(=O)SC: 4.4
- COc1c(C)cc(/C(=C/CCc2nnc(C)o2)c2ccc(C#N)cc2)cc1C(=O)SC: 3.2
- COc1c(C)cc(/C(=C/CCCc2nnc(C)o2)c2cc(C)c3oc(=O)n(C)c3c2)cc1C(=O)SC: 7.7
- COc1c(C)cc(/C(=C/CCc2nnc(C)o2)c2cc(C)c3onc(OC)c3c2)cc1C(=O)SC: 1.6
- COc1c(C)cc(/C(=C\CCc2nnc(C)o2)c2cc(C)c3onc(OC)c3c2)cc1C(=O)SC: 4.4
- COc1c(C)cc(/C(=C\CCc2nnc(C)o2)c2ccc(C#N)cc2)cc1C(=O)SC: 45

====

half-life by entry:
assay: Metabolic stability in rat plasma; format: ADME, cell-free
QUANTITY MEASURED: half-life (h)

* COC(=O)c1cc(/C(=C\CCc2nnc(C)o2)c2cc(C)c3onc(OC)c3c2)cc(C)c1OC | 5.52
* COc1c(C)cc(/C(=C\CCCc2nnc(C)o2)c2ccc(C#N)cc2)cc1C(=O)SC | 0.75
* COc1c(C)cc(/C(=C\CCCc2nnc(C)o2)c2cccc(C#N)c2)cc1C(=O)SC | 3.68
* COC(=O)c1cc(/C(=C\CCc2nnc(C)o2)c2cc(C)c3on(C)c(=O)c3c2)cc(C)c1OC | 3.66
* COc1c(C)cc(C(=CCCCc2nnc(C)o2)c2cc(C)c(OC)c(C(=O)SC)c2)cc1C(=O)SC | 1.27
* COC(=O)c1cc(C(=CCCc2nnn(C)n2)c2cc(C)c(OC)c(C(=O)OC)c2)cc(C)c1OC | 0.4
* COc1c(C)cc(/C(=C\CCc2nnc(C)o2)c2cccc(C#N)c2)cc1C(=O)SC | 3.68
* COC(=O)CCCC=C(c1cc(Cl)c(OC)c(C(=O)OC)c1)c1cc(Cl)c(OC)c(C(=O)OC)c1 | 0.0967
* COC(=O)c1cc(C(=CCCc2nnc(C)o2)c2cc(C)c(OC)c(C(=O)OC)c2)cc(C)c1OC | 0.055
